TEST PROTOCOL: Approximate solubility by solvent aliquot addition, visual inspection, ambient temperature
Assay type: physicochemical
RECORDED CONDITIONS: tetrahydrofuran, organic solvent or mixture, thermodynamic from solid; THF, ambient temperature, estimated; read-out: Solubility

{"COMPOUND": "CN(C)CCc1c[nH]c2cccc(O)c12 [psilocin, 4-hydroxy-N,N-dimethyltryptamine]", "solubility [mg/mL]": 18}

====

TEST PROTOCOL: Approximate solubility by solvent aliquot addition, visual inspection, ambient temperature
Assay type: physicochemical
RECORDED CONDITIONS: other organic solvents (not water, not alcohols), organic solvent or mixture, thermodynamic from solid; read-out: Solubility
EXPERIMENTAL ENDPOINT: solubility

{"MOLECULE": "CN(C)CCc1c[nH]c2cccc(O)c12 [psilocin, 4-hydroxy-N,N-dimethyltryptamine]", "OBSERVED RESULT": "≥ 8000 µg/mL"}

====

TEST PROTOCOL: Approximate solubility by solvent aliquot addition, visual inspection, ambient temperature
Assay type: physicochemical
RECORDED CONDITIONS: water, thermodynamic from solid; H20, ambient temperature, estimated; read-out: Solubility
EXPERIMENTAL ENDPOINT: solubility

{"MOLECULE": "CN(C)CCc1c[nH]c2cccc(O)c12 [psilocin, 4-hydroxy-N,N-dimethyltryptamine]", "EXPERIMENTAL ENDPOINT": "solubility", "OBSERVED RESULT": "< 1000 µg/mL"}
